List of SH2 binding enrichment values.
- targetUnderTest: Grb2 SH2 (UniProt P62993)
- Sequence (P62993 whole entry, looked up, the tested form may be a part): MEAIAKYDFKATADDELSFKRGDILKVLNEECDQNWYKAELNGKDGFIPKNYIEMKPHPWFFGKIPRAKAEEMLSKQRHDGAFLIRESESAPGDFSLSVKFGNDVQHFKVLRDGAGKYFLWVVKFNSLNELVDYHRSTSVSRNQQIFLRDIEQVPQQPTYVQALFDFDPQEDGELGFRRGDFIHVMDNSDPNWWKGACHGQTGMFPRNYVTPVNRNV
- assayProtocol: SH2 binding enrichment of the phosphorylated peptide, bacterial display (enrichment ratio); higher = better substrate or ligand; peptides without Tyr show the background;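 note: peptide library displayed on the E. coli surface as eCPX fusions, selected cells deep-sequenced, score is each peptide's frequency after selection divided by its frequency in the input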
Returns: the value as a bare number; no unit string appended.

-- ask Provide the documented SH2 binding enrichment with Grb2 SH2 (UniProt P62993) as the system for RPFVFYFSFLL [PTEN_Y177_R173P_YF]
-- reply 2.27

-- ask Provide the documented SH2 binding enrichment with Grb2 SH2 (UniProt P62993) as the system for AEVDTYCRHNY [HLA-DRB1_Y107_A103E]
-- reply 0.939

-- ask Provide the documented SH2 binding enrichment with Grb2 SH2 (UniProt P62993) as the system for QGIIIYRAAYF [SLC25A4_Y187]
-- reply 1.01

-- ask Provide the documented SH2 binding enrichment with Grb2 SH2 (UniProt P62993) as the system for FTAVGYHKHFT [NOMO1_Y1137_I1141F]
-- reply 0.865

-- ask Provide the documented SH2 binding enrichment with Grb2 SH2 (UniProt P62993) as the system for SFTDPYAQPSL [KMT2D_Y2378_P2382S_YF]
-- reply 0.777

Further cases:
-- ask Provide the documented SH2 binding enrichment with Grb2 SH2 (UniProt P62993) as the system for AARVSYWLASG [DCHS1_Y1582_R1583W]
-- reply 1.17

-- ask Provide the documented SH2 binding enrichment with Grb2 SH2 (UniProt P62993) as the system for FQCLRYIKQLG [SAMHD1_Y146_R143C]
-- reply 0.662

-- ask Provide the documented SH2 binding enrichment with Grb2 SH2 (UniProt P62993) as the system for EVGHVYLFLQP [ITGA2B_Y360_R358H]
-- reply 0.755

-- ask Provide the documented SH2 binding enrichment with Grb2 SH2 (UniProt P62993) as the system for MWGSDYVHLSR [MAP3K4_Y582_Q584H]
-- reply 0.914

-- ask Provide the documented SH2 binding enrichment with Grb2 SH2 (UniProt P62993) as the system for QTENKYDSVSG [EIF2AK3_Y565]
-- reply 0.839

-- ask Provide the documented SH2 binding enrichment with Grb2 SH2 (UniProt P62993) as the system for DKATEYIQYMR [MAX_Y70]
-- reply 0.938

-- ask Provide the documented SH2 binding enrichment with Grb2 SH2 (UniProt P62993) as the system for RGNKEYKEEKR [LENG1_Y96_E97K]
-- reply 1.25

-- ask Provide the documented SH2 binding enrichment with Grb2 SH2 (UniProt P62993) as the system for TNDRLYLRSLE [MTM1_Y71_Y68D]
-- reply 0.855

-- ask Provide the documented SH2 binding enrichment with Grb2 SH2 (UniProt P62993) as the system for GLRQGYFVEAQ [APCS_Y142]
-- reply 0.85

-- ask Provide the documented SH2 binding enrichment with Grb2 SH2 (UniProt P62993) as the system for YAREGYSALPQ [SARS2_Y52]
-- reply 0.901

-- ask Provide the documented SH2 binding enrichment with Grb2 SH2 (UniProt P62993) as the system for GCRSKYVRLWG [KCNQ1_Y184_G186R]
-- reply 1.38

-- ask Provide the documented SH2 binding enrichment with Grb2 SH2 (UniProt P62993) as the system for DHAGEYGAEAL [HBA1_Y25_A20D]
-- reply 0.825

-- ask Provide the documented SH2 binding enrichment with Grb2 SH2 (UniProt P62993) as the system for RAFRHYLLKQK [SCN2A_Y1919_R1918H_YF]
-- reply 0.939
